Catalogue of TGI readings, one per entry.
Test system: SW-620 colon
Experiment: NCI tumour cell line growth inhibition, 48 h

// worked examples, TGI included
# compound, experimental.result
records = [
    ("CN(C(=O)CC(=O)CP(=O)(c1ccccc1)c1ccccc1)c1ccccc1", "> 100 µM"),
    ("CC(=O)c1c(P(=O)(OC(C)C)OC(C)C)nn(-c2ccc([N+](=O)[O-])cc2)c1C", "> 100 µM"),
    ("c1ccc2c(c1)SC1=Nc3sc4ccccc4[n+]3CN12", "> 100 µM"),
]

[Q] Report TGI from SW-620 colon testing of "O=C(/C=C1\C[C@H]2C=Nc3ccccc3C(=O)N2C1)NCCCNC(=O)/C=C1\C[C@H]2C=Nc3ccccc3C(=O)N2C1"
[A] 28.3 µM

[Q] Report value only: TGI, SW-620 colon, CCCNC(=O)C(C)(Cl)C(=O)c1ccccc1O (stereo not given)
[A] > 100 µM

[Q] Report its TGI with SW-620 colon as the test system: CCCCCCC[C@@H](O)CC(=O)NC(CC(C)C)C(=O)NC(CCC(=O)O)C(=O)NC1C(=O)NC(C(C)C)C(=O)NC(CC(C)C)C(=O)NC(CO)C(=O)NC(CC(C)C)C(=O)NC(CO)C(=O)NC(C(C)CC)C(=O)OC1C (stereo not given in full)
[A] 28.8 µM

[Q] System SW-620 colon. Read-out TGI. Item "COc1ccc(/C=C/C(=O)c2cccc(B(O)O)c2)cc1O" . Report value.
[A] 11.5 µM

[Q] Check SW-620 colon data and give TGI for "NC(=O)N/N=C\c1ccccc1OCc1cccc(COc2ccccc2/C=N\NC(N)=O)n1" .
[A] > 100 µM

[Q] Answer briefly: TGI recorded on SW-620 colon for Cc1cccc(C)c1NC(=O)C(=O)C(C#N)c1ccccc1Cl (stereo not given)
[A] > 100 µM

[Q] Report its TGI with SW-620 colon as the test system: "Cn1c(=O)cc(NNc2ccccc2)[nH]c1=O"
[A] 31.3 µM

[Q] Name the value of TGI reported for "COc1cccc([C@@]2(O)c3c(ccc(O)c3OC)[C@H]2OC)c1OC" when tested on SW-620 colon.
[A] > 100 µM

[Q] Report the value of TGI obtained on SW-620 colon for "COc1cc(O)c2c(=O)c(OC)c(-c3ccc(OC)c(OC)c3)oc2c1.[Co]" .
[A] > 100 µM
